- study-system: RARγ (Homo sapiens)
- Construct: expressed in transfected cells; host or cells: CV-1 cells (ATCC)
- Sequence (P13631 whole entry, species assumed): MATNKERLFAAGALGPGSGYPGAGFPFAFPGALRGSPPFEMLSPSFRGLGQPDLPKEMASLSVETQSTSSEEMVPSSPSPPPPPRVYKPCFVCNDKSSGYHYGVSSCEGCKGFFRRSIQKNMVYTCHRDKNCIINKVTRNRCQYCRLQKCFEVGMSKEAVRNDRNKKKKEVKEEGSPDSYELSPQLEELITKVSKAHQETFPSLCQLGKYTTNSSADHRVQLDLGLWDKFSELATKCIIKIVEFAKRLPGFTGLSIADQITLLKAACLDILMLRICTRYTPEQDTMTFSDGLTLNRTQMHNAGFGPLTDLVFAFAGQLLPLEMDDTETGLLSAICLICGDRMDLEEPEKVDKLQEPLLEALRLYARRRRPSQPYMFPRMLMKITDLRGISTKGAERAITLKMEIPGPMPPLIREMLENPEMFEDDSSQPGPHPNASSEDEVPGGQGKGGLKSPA
- assay-notes: RARE-luciferase reporter assay in transfected CV-1 cells (affinity to retinoic acid receptor), RARγ
- Assay type: cell-based
- condition-description: treated 24 hours at final concentration 10^−4M, control group 5000
endpoint-label: Luciferase activity RARγ
// return a plain number; no unit text

INSERT INTO results (structure_as_smiles, value_observed) VALUES
  ('CCCc1ccc(C(=O)N(C)c2ccc(C(=O)NO)cc2)cc1', 11200),
  ('CCCc1ccc(C(=O)Nc2ccc(C(=O)NO)cc2)cc1', 11000),
  ('CCCc1ccc(N(C)C(=O)c2ccc(C(=O)NO)cc2)cc1', 12100),
  ('CC(C)c1ccc(NC(=O)c2ccc(C(=O)NO)cc2)cc1', 10100),
  ('Cc1ccc(C(=O)N(C)c2ccc(C(=O)NO)cc2)cc1', 11200),
  ('O=C(NO)c1ccc(NC(=O)c2ccccc2)cc1', 12000),
  ('CC(C)c1ccc(C(=O)Nc2ccc(C(=O)NO)cc2)cc1', 12300),
  ('O=C(Cc1ccc(NC(=O)c2ccccc2)cc1)NO', 13200),
  ('Cc1cccc(NC(=O)c2ccc(C(=O)NO)cc2)c1', 11200),
  ('CC(C)(C)c1ccc(C(=O)Nc2ccc(CC(=O)NO)cc2)cc1', 12000);

Lab note: measured Luciferase activity RARγ of "CN(C(=O)C12CC3CC(CC(C3)C1)C2)c1ccc(C(=O)NO)cc1" was 11200

Lab note: measured Luciferase activity RARγ of "Cc1ccc(N(C)C(=O)c2ccc(C(=O)NO)cc2)cc1C" was 12300

Lab note: measured Luciferase activity RARγ of "CCCCc1ccc(NC(=O)c2ccc(C(=O)NO)cc2)cc1" was 11200

Lab note: measured Luciferase activity RARγ of "CCc1ccc(C(=O)N(C)c2ccc(C(=O)NO)cc2)cc1" was 10400

----------
- study-system: RARα (Homo sapiens, UniProt P10276)
- Construct: expressed in transfected cells; host or cells: CV-1 cells (ATCC)
- Sequence (P10276 whole entry, species assumed): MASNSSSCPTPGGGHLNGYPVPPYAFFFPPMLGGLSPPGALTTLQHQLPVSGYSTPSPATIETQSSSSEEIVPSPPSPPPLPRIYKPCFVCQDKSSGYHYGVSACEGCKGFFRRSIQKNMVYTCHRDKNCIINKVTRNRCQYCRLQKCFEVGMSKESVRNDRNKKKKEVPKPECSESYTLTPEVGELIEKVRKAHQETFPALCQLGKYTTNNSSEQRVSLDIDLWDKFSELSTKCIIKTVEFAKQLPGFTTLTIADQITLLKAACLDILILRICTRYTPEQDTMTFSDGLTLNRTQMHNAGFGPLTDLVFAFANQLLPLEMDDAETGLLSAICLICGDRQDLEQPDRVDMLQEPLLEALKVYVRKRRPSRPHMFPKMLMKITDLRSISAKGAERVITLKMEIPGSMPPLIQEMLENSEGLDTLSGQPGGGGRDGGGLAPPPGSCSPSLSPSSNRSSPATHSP
- assay-notes: RARE-luciferase reporter assay in transfected CV-1 cells (affinity to retinoic acid receptor), RARα
- Assay type: cell-based
- condition-description: treated 24 hours at final concentration 10^−4M, control group 1000
endpoint-label: Luciferase activity RARα
// return a plain number; no unit text

Observe how each entry below is paired with its result.
INSERT INTO assay_data (structure_as_smiles, value_observed) VALUES
  ('CCCCc1ccc(C(=O)Nc2ccc(CC(=O)NO)cc2)cc1', 18900),
  ('CC(C)(C)c1ccc(C(=O)Nc2ccc(C(=O)NO)cc2)cc1', 10002),
  ('CN(O)C(=O)Cc1ccc(NC(=O)C23CC4CC(CC(C4)C2)C3)cc1', 13400);

Lab note: measured Luciferase activity RARα of "Cc1cccc(NC(=O)c2ccc(C(=O)NO)cc2)c1" was 16700

Lab note: measured Luciferase activity RARα of "CCCc1ccc(N(C)C(=O)c2ccc(C(=O)NO)cc2)cc1" was 14500

Lab note: measured Luciferase activity RARα of "CCCCc1ccc(C(=O)N(C)c2ccc(C(=O)NO)cc2)cc1" was 12900

Lab note: measured Luciferase activity RARα of "Cc1cccc(C(=O)N(C)c2ccc(C(=O)NO)cc2)c1" was 18000

This collection of values is drawn from patent US7282522B2.
